B1: library; a variant is named by its letters at N, in order (parent)
chain: AATGTTGTTGATGCAACCATAAAGTGATATTTAATAATTATTTATAATCAGCAACTTAACCACAAAACAACCATATATTGATATNTCACAAAACAACCATAANTTGATATTTTTGTGAATCGAGTATTTCAGCAAAACTACTGCAGTAAGAA

# Variants of: B1
# test: relative integration efficiency (T-LR orientation) vs wild-type transposon end (log2 (normalized fold change)); transposon end mutated: left end; higher = more efficient transposition
# conditionParameters: with VchCAST RNA-guided transposition machinery (E. coli BL21(DE3) host, lacZ target)
reportedMetric: relative integration efficiency (log2)
When you answer, write just the number.

# input Quick one: relative integration efficiency (log2) for TG A16C G24T T32G A33C T76A T78G C87A ?
# output 0.456
